Measured selectivity ratio at 48 h, listed per entry for reference.
ASSAY: Differential nuclear staining
Format: cell-based
CONDITION_SET: human, Hs-27 cells (non-cancerous reference) versus RAMOS cells

smiles_notation=O=C1C(=Cc2ccc(F)c(F)c2)CN(C(=O)C(Cl)Cl)CC1=Cc1ccc(F)c(F)c1 measured=4.79

Let me know recorded selectivity ratio at 48 h for O=C1C(=Cc2ccc(Cl)c(Cl)c2)CN(C(=O)C(Cl)Cl)CC1=Cc1ccc(Cl)c(Cl)c1 , thanks.
5.55

---

ASSAY: Differential nuclear staining
Assay type: cell-based
CONDITION_SET: human, Hs-27 cells (non-cancerous reference) versus HT-29 cells
// selectivity ratio at 48 h lookup, one value per entry
Lab note: record the figure alone, no unit after it.

smiles_notation=O=C1C(=Cc2ccc(F)c(F)c2)CN(C(=O)C(Cl)Cl)CC1=Cc1ccc(F)c(F)c1 measured=2.8

Now consider the entry below.
Retrieve selectivity ratio at 48 h measured for O=C1C(=Cc2ccc(Cl)c(Cl)c2)CN(C(=O)C(Cl)Cl)CC1=Cc1ccc(Cl)c(Cl)c1 and print it.
5.55

---

Attribute: selectivity ratio at 48 h
ASSAY: Differential nuclear staining
Format: cell-based, human
CONDITION_SET: human, Hs-27 cells (non-cancerous reference) versus CEM cells
Could you keep your reply to the number by itself?

compound="O=C1C(=Cc2ccc(Cl)c(Cl)c2)CN(C(=O)C(Cl)Cl)CC1=Cc1ccc(Cl)c(Cl)c1 [compound 2610]" measured_parameter="selectivity ratio at 48 h" measured=6.66

Report measured selectivity ratio at 48 h; entry is O=C1C(=Cc2ccc(F)c(F)c2)CN(C(=O)C(Cl)Cl)CC1=Cc1ccc(F)c(F)c1 [compound 2608]
22.8

---

ASSAY: Differential nuclear staining
Assay type: cell-based
CONDITION_SET: human, Hs-27 cells (non-cancerous reference) versus PC-3 cells
Some compounds, each annotated with its measured selectivity ratio at 48 h.
Please reply with the number alone, leaving off any unit.

smiles_notation=O=C1C(=Cc2ccc(Cl)c(Cl)c2)CN(C(=O)C(Cl)Cl)CC1=Cc1ccc(Cl)c(Cl)c1 measured_parameter="selectivity ratio at 48 h" measured=0.44

Consider the additional compound presented here.
Look up selectivity ratio at 48 h of O=C1C(=Cc2ccc(F)c(F)c2)CN(C(=O)C(Cl)Cl)CC1=Cc1ccc(F)c(F)c1 and report it.
1.51

---

ASSAY: Differential nuclear staining
Format: cell-based, human
CONDITION_SET: human, Hs-27 cells (non-cancerous reference) versus COLO 205 cells
Below is a list of entries, each paired with its recorded selectivity ratio at 48 h value.
When you answer, write just the number.

smiles_notation=O=C1C(=Cc2ccc(Cl)c(Cl)c2)CN(C(=O)C(Cl)Cl)CC1=Cc1ccc(Cl)c(Cl)c1 measured=0.12

Let us examine a further case.
// fetch selectivity ratio at 48 h given entry O=C1C(=Cc2ccc(F)c(F)c2)CN(C(=O)C(Cl)Cl)CC1=Cc1ccc(F)c(F)c1
1.07

---

ASSAY: Differential nuclear staining
Assay type: cell-based
CONDITION_SET: human, HS-27 cells (normal foreskin, non-cancer)
MEASURED_PARAMETER: CC50 at 48 h (µM)
# unit: µM | format: bare number

compound="O=C1C(=Cc2ccc(F)c(F)c2)CN(C(=O)C(Cl)Cl)CC1=Cc1ccc(F)c(F)c1 [compound 2608]" measured=0.455

--- query ---
Fill in CC50 at 48 h for record O=C1C(=Cc2ccc(Cl)c(Cl)c2)CN(C(=O)C(Cl)Cl)CC1=Cc1ccc(Cl)c(Cl)c1 [compound 2610]
0.2

---

// reported selectivity ratio at 48 h per item
ASSAY: Differential nuclear staining
Type: cell-based
CONDITION_SET: human, Hs-27 cells (non-cancerous reference) versus MCF-10 A cells
Lab note: write the figure by itself, no unit.

smiles_notation=O=C1C(=Cc2ccc(F)c(F)c2)CN(C(=O)C(Cl)Cl)CC1=Cc1ccc(F)c(F)c1 measured=2.6

Proceed to the following item.
Specify selectivity ratio at 48 h for O=C1C(=Cc2ccc(Cl)c(Cl)c2)CN(C(=O)C(Cl)Cl)CC1=Cc1ccc(Cl)c(Cl)c1 and stop.
1.66

---

ASSAY: Differential nuclear staining
Type: cell-based
CONDITION_SET: human
MEASURED_PARAMETER: selectivity ratio at 48 h
Please respond with just the number, no unit label.

smiles_notation=O=C1C(=Cc2ccc(F)c(F)c2)CN(C(=O)C(Cl)Cl)CC1=Cc1ccc(F)c(F)c1 measured_parameter="selectivity ratio at 48 h" measured=9.68

Consider the additional compound presented here.
Specify measured selectivity ratio at 48 h for O=C1C(=Cc2ccc(Cl)c(Cl)c2)CN(C(=O)C(Cl)Cl)CC1=Cc1ccc(Cl)c(Cl)c1 .
1.65

---

ASSAY: Differential nuclear staining
Assay type: cell-based
CONDITION_SET: human, Hs-27 cells (non-cancerous reference) versus U266 cells
MEASURED_PARAMETER: selectivity ratio at 48 h
Could you respond with only the numeric value?

smiles_notation=O=C1C(=Cc2ccc(Cl)c(Cl)c2)CN(C(=O)C(Cl)Cl)CC1=Cc1ccc(Cl)c(Cl)c1 measured_parameter="selectivity ratio at 48 h" measured=0.26

Here is another molecule to look at.
// Input: O=C1C(=Cc2ccc(F)c(F)c2)CN(C(=O)C(Cl)Cl)CC1=Cc1ccc(F)c(F)c1 . Output its selectivity ratio at 48 h only.
31.6

---

ASSAY: Differential nuclear staining
Assay type: cell-based
CONDITION_SET: human, Hs-27 cells (non-cancerous reference) versus MM1 R cells
Let's look at some compounds and their measured selectivity ratio at 48 h.
Note: the reply should be a number with no unit written.

smiles_notation=O=C1C(=Cc2ccc(Cl)c(Cl)c2)CN(C(=O)C(Cl)Cl)CC1=Cc1ccc(Cl)c(Cl)c1 measured=22.2

Now for a further compound.
Supply recorded selectivity ratio at 48 h for O=C1C(=Cc2ccc(F)c(F)c2)CN(C(=O)C(Cl)Cl)CC1=Cc1ccc(F)c(F)c1 here.
28.4

---

ASSAY: Differential nuclear staining
Format: cell-based
CONDITION_SET: human, CCD-112-CoN cells (non-cancerous colon fibroblasts)
MEASURED_PARAMETER: CC50 at 48 h (nM)
// units = nM; emit number, no label

smiles_notation=O=C1C(=Cc2ccc(F)c(F)c2)CN(C(=O)C(Cl)Cl)CC1=Cc1ccc(F)c(F)c1 measured=120

// next item, CC50 at 48 h requested
Identify the reported CC50 at 48 h for the following entry. O=C1C(=Cc2ccc(Cl)c(Cl)c2)CN(C(=O)C(Cl)Cl)CC1=Cc1ccc(Cl)c(Cl)c1
176

---

ASSAY: Differential nuclear staining
Format: cell-based
CONDITION_SET: human, MCF-10 A cells (breast epithelial)
MEASURED_PARAMETER: CC50 at 48 h (µM)
Dear colleague, please return just the value in µM, with no unit written.

molecule="O=C1C(=Cc2ccc(F)c(F)c2)CN(C(=O)C(Cl)Cl)CC1=Cc1ccc(F)c(F)c1 [compound 2608]" measured=0.175

Please look at the following molecule next.
Entry O=C1C(=Cc2ccc(Cl)c(Cl)c2)CN(C(=O)C(Cl)Cl)CC1=Cc1ccc(Cl)c(Cl)c1 [compound 2610] needs its CC50 at 48 h filled in; supply it.
0.12

---

ASSAY: Differential nuclear staining
Format: cell-based
CONDITION_SET: human, Hs-27 cells (non-cancerous reference) versus RPMI-8226 cells
The following compounds are shown together with reported selectivity ratio at 48 h values.
Answer with the value's number alone.

compound="O=C1C(=Cc2ccc(Cl)c(Cl)c2)CN(C(=O)C(Cl)Cl)CC1=Cc1ccc(Cl)c(Cl)c1 [compound 2610]" measured_parameter="selectivity ratio at 48 h" measured=0.599

Okay, next one:
Using the record for O=C1C(=Cc2ccc(F)c(F)c2)CN(C(=O)C(Cl)Cl)CC1=Cc1ccc(F)c(F)c1 [compound 2608] , state its measured selectivity ratio at 48 h.
11.5
